Test system: Wnt activity (Sp5-Luc reporter, SW480 colon carcinoma cells)
Method Notes: Wnt activity screening assay: Sp5-Luc reporter gene assay in SW480 cells
Format: cell-based
Assay Setup: Homo sapiens, SW480 cells, overnight incubation
Consider the following compounds; for each one, report its EC50.

Q) Entry under review: FC1(F)CCN(Cc2cncc(-c3ccc4[nH]nc(-c5cc6c(-c7cccnc7)ccnc6[nH]5)c4n3)c2)C1 . Reported EC50?
A) > 10 µM

Q) Entry under review: CN(C)CCNc1cc(F)cc(-c2ccnc3[nH]c(-c4n[nH]c5ccc(-c6ccncc6)nc45)cc23)c1 . Reported EC50?
A) > 10 µM

Q) Entry under review: Cn1cc(-c2ccc3[nH]nc(-c4cc5cccnc5[nH]4)c3n2)cn1 . Reported EC50?
A) 2.26 µM

Q) Entry under review: c1cncc(-c2ccc3[nH]nc(-c4cc5cccnc5[nH]4)c3n2)c1 . Reported EC50?
A) > 10 µM

Q) Entry under review: CN(C)CCOc1cncc(-c2ccc3[nH]nc(-c4cc5c(-c6cccnc6)ccnc5[nH]4)c3n2)c1 . Reported EC50?
A) > 10 µM
